Below is a list of entries, each paired with its recorded pIC50 value.
System: WM3928 cells
run description: WM3928 Cell Proliferation Assay (1)
Assay type: cell-based
pIC50: −log10 of the molar value.
test readout: pIC50

# compound, test readout, result
rows = [
    ("Cc1cc(F)c(NC(=O)c2ccnc(C(C)(C)C#N)c2)cc1-c1ccnc(-c2ccnc(NC=O)c2)c1", "pIC50", "≥ 7.00"),
    ("Cc1ccc(NC(=O)c2ccnc(C(C)(C)C#N)c2)cc1-c1cncc(-c2ccnc3c2CC(=O)N3)n1", "pIC50", "≥ 7.00"),
    ("CNC(=O)c1cc(-c2cnnc(-c3cc(NC(=O)c4ccnc(C(F)(F)F)c4)ccc3C)c2)ccn1", "pIC50", "5.00 to 6.00"),
    ("Cc1ccc(NC(=O)c2cnnc(C3CC3)c2)cc1-c1cccc(-c2cc(NC(=O)C3CC3)ncn2)c1", "pIC50", "≥ 7.00"),
    ("Cc1cc(F)c(NC(=O)c2ccnc(C(F)(F)F)c2)cc1-c1cncc(-c2ccnc(NC(=O)C3CC3)c2)n1", "pIC50", "≥ 7.00"),
    ("Cc1ncc(NC(=O)c2ccnc(C(C)(C)C#N)c2)cc1-c1cccc(-c2ncnc3[nH]ncc23)c1", "pIC50", "6.30 to 7.00"),
    ("Cc1ccc(NC(=O)c2ccnc(C(C)(C)C#N)c2)cc1-c1cccc(-c2cc(NC(=O)C3CC3)ncn2)n1", "pIC50", "5.00 to 6.00"),
    ("CC(=O)Nc1cc(-c2nccc(-c3cc(NC(=O)c4cccc(C(C)(C)C#N)c4)ccc3C)n2)ccn1", "pIC50", "≥ 7.00"),
    ("Cc1ccc(NC(=O)c2ccnc(C3CC3)c2)cc1-c1cccc(-c2cc(NC(=O)C3CC3)ncn2)c1", "pIC50", "≥ 7.00"),
    ("CC(=O)Nc1cc(-c2nccc(-c3cc(NC(=O)c4cnnc(C5CC5)c4)ccc3C)n2)ccn1", "pIC50", "6.00 to 6.30"),
    ("Cc1ccc(NC(=O)C2CCOC(C(C)C)C2)cc1-c1cc(-c2ccnc(NC(=O)C3CC3)c2)cnn1 (stereo not shown)", "pIC50", "5.00 to 6.00"),
    ("CNC(=O)c1cc(-c2cccc(-c3cc(NC(=O)c4ccnc(C(C)(C)C#N)c4)cnc3C)c2)ccn1", "pIC50", "≥ 7.00"),
    ("Cc1ccc(NC(=O)c2ccnc(C(C)(C)F)c2)cc1-c1cncc(-c2cc(NC(=O)C3CC3)ncn2)c1", "pIC50", "≥ 7.00"),
    ("Cc1cc(F)c(NC(=O)c2ccnc(C(C)(C)C#N)c2)cc1-c1ccnc(-c2ccnc(NC(=O)C3CC3)c2)n1", "pIC50", "≥ 7.00"),
    ("COC(=O)Nc1cc(-c2cc(-c3cc(NC(=O)c4ccnc(C(C)(C)C#N)c4)cnc3C)ccn2)ccn1", "pIC50", "≥ 7.00"),
    ("Cc1ccc(NC(=O)c2ccnc(C3CC3)c2)cc1-c1cc(-c2ccnc(NC(=O)C3CC3)c2)cnn1", "pIC50", "6.00 to 6.30"),
    ("Cc1ccc(NC(=O)c2ccnc(C(C)(C)F)c2)cc1-c1cncc(-c2ccnc3c2CC(=O)N3)c1", "pIC50", "6.30 to 7.00"),
    ("Cc1ccc(NC(=O)c2ccnc(C(C)(C)C#N)c2)cc1-c1ccnc(-c2ccnc(NC(=O)C3CC3)c2)n1", "pIC50", "≥ 7.00"),
    ("CNC(=O)c1cc(-c2cc(-c3cc(NC(=O)c4ccnc(C(F)(F)F)c4)cnc3C)ccn2)ccn1", "pIC50", "5.00 to 6.00"),
    ("CNC(=O)c1cc(-c2cc(-c3cc(NC(=O)c4ccnc(C(F)F)c4)ccc3C)ccn2)ccn1", "pIC50", "6.00 to 6.30"),
    ("COC(=O)Nc1cc(-c2cccc(-c3cc(NC(=O)c4ccnc(C(C)(C)F)c4)cnc3C)c2)ccn1", "pIC50", "6.30 to 7.00"),
    ("CNC(=O)c1cc(-c2cc(-c3cc(NC(=O)c4ccnc(C(C)(C)C#N)c4)c(F)cc3C)ccn2)ccn1", "pIC50", "≥ 7.00"),
    ("CNC(=O)c1cc(-c2cc(-c3cc(NC(=O)c4ccnc(C(C)(C)F)c4)ccc3C)ccn2)ccn1", "pIC50", "≥ 7.00"),
    ("Cc1ncc(NC(=O)c2ccnc(C(C)(C)F)c2)cc1-c1cncc(-c2ccnc(NC(=O)C3CC3)c2)c1", "pIC50", "≥ 7.00"),
    ("CNC(=O)c1cc(-c2cnnc(-c3cc(NC(=O)c4ccnc(C(C)(C)F)c4)ccc3C)c2)ccn1", "pIC50", "6.00 to 6.30"),
]
